Data origin, for the record: patent US12011433B2

Each entry below carries its reported melting point.

Problem: What measured melting point goes with COc1ccc(-c2noc(CC(=O)NCCNC(=O)Cc3onc(-c4ccc(OC)cc4)c3-c3ccc(OC)cc3)c2-c2ccc(OC)cc2)cc1 [Compound 10] ?
Solution: 145 to 148 °C

Problem: What measured melting point goes with COc1ccc(-c2noc(CC(=O)NCCCCNC(=O)Cc3onc(-c4ccc(OC)cc4)c3-c3ccc(OC)cc3)c2-c2ccc(OC)cc2)cc1 [Compound 11] ?
Solution: 163 to 166 °C

Problem: What measured melting point goes with CCC(CCCNC(=O)Cc1onc(-c2ccc(OC)cc2)c1-c1ccc(OC)cc1)NC(=O)Cc1onc(-c2ccc(OC)cc2)c1-c1ccc(OC)cc1 (stereo not drawn) [Compound 12] ?
Solution: 159 to 161 °C
